- subject_of_test: HLA-A*02:11
- assay_details: IEDB peptide-MHC binding, purified MHC/direct/fluorescence; filed as Kd, often an IC50 or EC50 that approximates it; bounds were set here for any values at or beyond the usual limits of such assays
- run_conditions: source organism: Giardia lamblia ATCC 50803
endpoint_label: Kd
Number first, unit second.

Could you please provide reported Kd for "HCIDKTPGL" ? Thanks!
914 nM

###

- subject_of_test: HLA-B*40:01
- assay_details: IEDB peptide-MHC binding, purified MHC/direct/fluorescence; filed as Kd, often an IC50 or EC50 that approximates it; bounds were set here for any values at or beyond the usual limits of such assays
- run_conditions: source organism: Influenza A virus (A/swine/Hong Kong/5190/99(H3N2))
endpoint_label: Kd

Could you please provide reported Kd for "GYMFESKSM" ? Thanks!
≥ 20 µM

###

- subject_of_test: HLA-B*15:01
- assay_details: IEDB peptide-MHC binding, purified MHC/competitive/fluorescence; filed as Kd, often an IC50 or EC50 that approximates it; bounds were set here for any values at or beyond the usual limits of such assays
- run_conditions: source organism: Bacillus cereus G9241
endpoint_label: Kd (nM)
Field format: number, assumed nM, no unit text.

Could you please provide reported Kd for "LFAGSIAAY" ? Thanks!
190

###

- subject_of_test: HLA-A*11:01
- assay_details: IEDB peptide-MHC binding, purified MHC/direct/fluorescence; filed as Kd, often an IC50 or EC50 that approximates it; bounds were set here for any values at or beyond the usual limits of such assays
- run_conditions: source organism: Hepatovirus A
pKd: −log10 of the molar value.
endpoint_label: pKd

Tell me pKd of "YMYAVSGAL" when tested on HLA-A*11:01.
≤ 4.70

###

- subject_of_test: HLA-B*44:03
- assay_details: IEDB peptide-MHC binding, purified MHC/competitive/radioactivity; filed as Kd, often an IC50 or EC50 that approximates it; bounds were set here for any values at or beyond the usual limits of such assays
- run_conditions: source organism: Dengue virus 1 Brazil/97-11/1997
Here, each record is paired with measured Kd data.
Number first, unit second.

- seq: "SEMAEALKGM"
  Kd: "22.4 nM"

Let's switch to this sequence now.
Could you please provide reported Kd for "NEAKITDIM" ? Thanks!
4130 nM

###

- subject_of_test: HLA-B*54:01
- assay_details: IEDB peptide-MHC binding, purified MHC/competitive/radioactivity; filed as Kd, often an IC50 or EC50 that approximates it; bounds were set here for any values at or beyond the usual limits of such assays
- run_conditions: source organism: Mammarenavirus choriomeningitidis
endpoint_label: pKd
Worth noting: pKd values are minus log10 of concentrations stated in mol/L.

Could you please provide reported pKd for "FATCGLFAL" ? Thanks!
5.20

###

- subject_of_test: HLA-A*23:01
- assay_details: IEDB peptide-MHC binding, purified MHC/competitive/radioactivity; filed as Kd, often an IC50 or EC50 that approximates it; bounds were set here for any values at or beyond the usual limits of such assays
- run_conditions: source organism: Mammarenavirus whitewaterense
endpoint_label: Kd (µM)
Field format: number, assumed µM, no unit text.

Could you please provide reported Kd for "VWKRFEHLCV" ? Thanks!
7.99

###

- subject_of_test: HLA-B*58:01
- assay_details: IEDB peptide-MHC binding, purified MHC/direct/fluorescence; filed as Kd, often an IC50 or EC50 that approximates it; bounds were set here for any values at or beyond the usual limits of such assays
- run_conditions: source organism: Vibrio cholerae
pKd: −log10 of the molar value.
endpoint_label: pKd

- seq: "QMEQWGCPW"
  endpoint_result: 5.97
- seq: "RYDYANLCQ"
  endpoint_result: "≤ 4.70"

Could you please provide reported pKd for "YLKKGRLSL" ? Thanks!
≤ 4.70
